Cited source: paper PMC7072103

experiment description: Pharmacokinetic study in rats after oral administration of RPM extract (UPLC-MS/MS of plasma)
Format: in vivo, Sprague-Dawley rats
test parameters: male, Sprague-Dawley, rat, plasma, po, 36 g/kg, rat plasma, single oral dose of RPM extract 36 g/kg, n = 6, mean ± SD; read-out: AUC0–t
Known AUC(0-t) of a selection of molecules
Note: unit ng·h/mL is implicit; provide only the numeric part.

Guide cases for AUC(0-t), answers given:
Tell me the measured AUC(0-t) of OC[C@H]1O[C@@H](Oc2c(O)cc(O)cc2/C=C/c2ccc(O)cc2)[C@H](O)[C@@H](O)[C@@H]1O [TSG] , please. 1870

Tell me the measured AUC(0-t) of COc1cc(O[C@@H]2O[C@H](CO)[C@@H](O)[C@H](O)[C@H]2O)c2c(O)c(C(C)=O)c(C)cc2c1 [TG, torachrysone-8-O-glucoside] , please. 21.2

***
Tell me the measured AUC(0-t) of O=C(O)c1cc(O)c2c(c1)C(=O)c1cccc(O)c1C2=O [Rhein, rhein] , please. 1.11

Tell me the measured AUC(0-t) of Cc1cc(O)c2c(c1)C(=O)c1cccc(O)c1C2=O [Chrysophanol, chrysophanol] , please. 4.28
